Assay: Spectroscopic properties of the BDM library (absorbance and emission maxima)
Assay type: physicochemical
Could you please mark class 1 for values of λmax (EM) below 600 nm and class 0 for values at or above it?

Problem: Would you kindly verify if λmax (EM) of CC1=CC(/C=C/c2ccc(Oc3ccc(C(C)(C)C)cc3)cc2)=[N+]2C1=C(CCN)c1cccn1[B-]2(F)F [BDM-435] is strictly less than 600 nm?
Solution: class 1

Problem: Entry to check: CC1=CC(/C=C/c2cccc3c2OCO3)=[N+]2C1=C(CCN)c1cccn1[B-]2(F)F [BDM-231]
Solution: class 1

Problem: Entry to check: CC1=CC(/C=C/c2c(C)cccc2C)=[N+]2C1=C(CCN)c1cccn1[B-]2(F)F [BDM-243]
Solution: class 1

Problem: Entry to check: COc1ccc(/C=C/C2=[N+]3C(=C(CCN)c4cccn4[B-]3(F)F)C(C)=C2)cc1[N+](=O)[O-] [BDM-350]
Solution: class 1

Problem: Entry to check: COc1ccc(/C=C/C2=[N+]3C(=C(CCN)c4cccn4[B-]3(F)F)C(C)=C2)c(F)c1 [BDM-359]
Solution: class 1

Problem: Entry to check: CC1=CC(/C=C/c2ccc(-c3cccc(Cl)c3)o2)=[N+]2C1=C(CCN)c1cccn1[B-]2(F)F [BDM-284]
Solution: class 0

###

Assay: Quantum yield measurements
Type: physicochemical
Settings: referred to Rhodamine B in EtOH, excitation 510 nm, emission integrated 540-800 nm
Protocol: Quantum yields were calculated by measuring the integrated emission area of the fluorescent spectra, and referring them to the area measured for Rhodamine B in EtOH after excitation at 510 nm (ΦRho-B=0.70). Quantum yields for the BDM products were then calculated using equation below, where F represents the area of fluorescent emission, n is reflective index of the solvent, and Abs is absorbance at excitation wavelength selected for standards and samples. […]
Provide the recorded φ (quantum yield) for the entries that follow.
Just the number, please, no unit after it.

Problem: Consider the molecule Cc1cc(/C=C/c2cc(C)c3n2[B-](F)(F)[N+]2=CC=CC2=C3CCN)cc(C)c1OCc1ccccc1 and give its measured φ (quantum yield).
Solution: 0.14

Problem: Entry to check: CC1=CC(/C=C/c2c(C)cccc2Cl)=[N+]2C1=C(CCN)c1cccn1[B-]2(F)F
Solution: 0.51

Problem: Entry to check: CC1=CC(/C=C/c2ccc(N(C)C)c3ccccc23)=[N+]2C1=C(CCN)c1cccn1[B-]2(F)F
Solution: 0.04

Problem: Entry to check: CC1=CC(/C=C/c2ccc(Oc3ccc(Cl)cc3)cc2)=[N+]2C1=C(CCN)c1cccn1[B-]2(F)F
Solution: 0.59

Problem: Entry to check: COc1ccc(/C=C/C2=[N+]3C(=C(CCN)c4cccn4[B-]3(F)F)C(C)=C2)cc1C
Solution: 0.78

Problem: Entry to check: COc1ccccc1/C=C/C1=[N+]2C(=C(CCN)c3cccn3[B-]2(F)F)C(C)=C1
Solution: 0.59

Problem: Entry to check: Cc1cc(/C=C/c2ccc(N(C)CCC#N)cc2)n2c1C(CCN)=C1C=CC=[N+]1[B-]2(F)F
Solution: 0.05

Problem: Entry to check: CCc1ccccc1/C=C/C1=[N+]2C(=C(CCN)c3cccn3[B-]2(F)F)C(C)=C1
Solution: 0.22

###

Assay: Spectroscopic properties of the BDM library (absorbance and emission maxima)
Assay type: physicochemical
Provide the recorded λmax (EM) for the entries that follow.
Enter your answer as a number in nm; do not include the unit.

Problem: Consider the compound Cc1cccc(/C=C/c2cc(C)c3n2[B-](F)(F)[N+]2=CC=CC2=C3CCN)c1 [BDM-9] and give its measured λmax (EM).
Solution: 567

Problem: Entry to check: CC1=CC(/C=C/c2cc3ccccc3c3ccccc23)=[N+]2C1=C(CCN)c1cccn1[B-]2(F)F [BDM-440]
Solution: 589

Problem: Entry to check: CC1=CC(/C=C/c2ccc(-c3cncnc3)cc2)=[N+]2C1=C(CCN)c1cccn1[B-]2(F)F [BDM-199]
Solution: 574

Problem: Entry to check: COc1ccc(/C=C/C2=[N+]3C(=C(CCN)c4cccn4[B-]3(F)F)C(C)=C2)cc1O [BDM-132]
Solution: 594

Problem: Entry to check: CC1=CC(/C=C/c2ccc(-c3ccc(Cl)cc3)o2)=[N+]2C1=C(CCN)c1cccn1[B-]2(F)F [BDM-371]
Solution: 630

Problem: Entry to check: COc1ccc(/C=C/c2cc(C)c3n2[B-](F)(F)[N+]2=CC=CC2=C3CCN)c2ccccc12 [BDM-32]
Solution: 624

Problem: Entry to check: CC1=CC(/C=C/c2cccc(O)c2)=[N+]2C1=C(CCN)c1cccn1[B-]2(F)F [BDM-105]
Solution: 567

Problem: Entry to check: CCCOc1ccc(/C=C/C2=[N+]3C(=C(CCN)c4cccn4[B-]3(F)F)C(C)=C2)cc1 [BDM-140]
Solution: 585

These data points were gathered from patent US9267949B2.
